Biological target: Interleukin-1 receptor-associated kinase 4 (Homo sapiens)
Sequence (Q9NWZ3 whole entry): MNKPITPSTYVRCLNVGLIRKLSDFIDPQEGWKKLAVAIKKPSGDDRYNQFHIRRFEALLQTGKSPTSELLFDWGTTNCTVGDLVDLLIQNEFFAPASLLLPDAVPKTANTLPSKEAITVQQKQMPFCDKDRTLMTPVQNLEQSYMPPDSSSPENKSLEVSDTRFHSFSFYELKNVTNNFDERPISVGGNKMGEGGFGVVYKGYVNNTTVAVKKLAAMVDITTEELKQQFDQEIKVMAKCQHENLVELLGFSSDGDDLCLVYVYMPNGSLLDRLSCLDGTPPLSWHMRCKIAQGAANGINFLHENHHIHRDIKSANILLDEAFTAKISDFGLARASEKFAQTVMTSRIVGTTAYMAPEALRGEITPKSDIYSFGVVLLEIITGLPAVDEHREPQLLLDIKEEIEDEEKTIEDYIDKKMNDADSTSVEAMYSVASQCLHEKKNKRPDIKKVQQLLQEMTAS
Field: IC50. Provide a value for each of the molecules that follow.

molecule: Cc1cnc(-n2nc(C3CCNCC3)cc2NC(=O)c2cnn3cccnc23)nc1
IC50: > 1000 nM
//
molecule: Cc1ccc(-n2nc(C3CCCN(Cc4ccc(F)cn4)C3)cc2NC(=O)c2cnn3cccnc23)cc1 (centres undefined)
IC50: < 1000 nM
//
molecule: Cc1ccc(-n2nc(C3CCN(C(C)C(=O)N4CCCCC4)CC3)cc2NC(=O)c2cnn3cccnc23)cc1 (centres undefined)
IC50: < 1000 nM
//
molecule: Cc1ccc(-n2nc(C3CCN(C)CC3)cc2NC(=O)c2cnn3cccnc23)c(F)c1
IC50: < 1000 nM
//
molecule: Cc1ccc(-n2nc(C3CCCN(Cc4ccncc4)C3)cc2NC(=O)c2cnn3cccnc23)cc1 (centres undefined)
IC50: < 1000 nM

For each of the items listed, what is its IC50?
1. Cc1ccc(-n2nc(C3CCCN(Cc4ncco4)C3)cc2NC(=O)c2cnn3cccnc23)cc1 (centres undefined)
2. CS(=O)(=O)N1CCC(c2cc(NC(=O)c3cnn4cccnc34)n(-c3ccccc3)n2)CC1
3. Cc1ccc(-n2nc(C3CCN(C4CCN(C5CC5)CC4)CC3)cc2NC(=O)c2cnn3cccnc23)cc1
4. Cc1ccc(-n2nc(C3CCN(C(C)c4cccc(F)n4)CC3)cc2NC(=O)c2cnn3cccnc23)cc1 (centres undefined)
5. Cc1ccc(-n2nc(C3CCCN(Cc4cnc(N(C)C)s4)C3)cc2NC(=O)c2cnn3cccnc23)cc1 (centres undefined)
6. Cc1ccc(-n2nc(C3CCN(S(=O)(=O)C4CC4)CC3)cc2NC(=O)c2cnn3cccnc23)nc1

Response given:
< 1000 nM
< 1000 nM
< 1000 nM
< 1000 nM
< 1000 nM
< 100 nM
